PROTOCOL_NOTES: protein stability index of a GFP-peptide fusion (yeast GPS) (PSI 1-4); higher = more stable; sorted into four equal gates, so the index is relative within each strain
CONDITION_LABEL: pdr5∆
READOUT_LABEL: protein stability index
I'd appreciate a reply containing only the number, no unit.

SEQUENCE_CONTENT	protein stability index
QGPIVADKNCAKLHRIS [PUP1]	2.94
TIRYLMQKQHEMKTQAA [SNF6]	2.98
LCVLWDDLQSSVIPEVD [YCG1]	1.87

Prompt: Indicate its recorded protein stability index; the sequence in question is SAFMKFSKAIEWDMLNV [BRR2]
Completion: 1.9

Prompt: Let me know recorded protein stability index for QLTPQQQQLVNQMKVAP [GAL11] , thanks.
Completion: 2.98

Prompt: Return protein stability index for the following sequence: YVEAQHKLVFVVRIKGI [RPL7A]
Completion: 1.19

Prompt: Tell me protein stability index reported for KMIDFATLSKLKKKYQI [SIR3]
Completion: 3.35
